tested on: Leishmania amazonensis; assay: Anti-promastigote activity against Leishmania amazonensis (IFLA/BR/67/PH8) assessed as promastigote growth inhibition incubated for 72 hrs by microscopic analysis; type: functional, organism-based; settings: Leishmania amazonensis, IFLA/BR/67/PH8, 72 h
pEC50: −log10 of the molar value.
property label: pEC50

>  <smiles data>
COc1ccc2nc3cc(Cl)ccc3c(Nc3sc4c(c3C#N)CCC4)c2c1

>  <study target>
Leishmania amazonensis

>  <property label>
pEC50

>  <inequality symbol>
=

>  <reported>
5.02

$$$$
>  <smiles data>
N#Cc1c(/N=C/c2c3ccccc3nc3ccccc23)sc2c1CCC2

>  <study target>
Leishmania amazonensis

>  <property label>
pEC50

>  <inequality symbol>
<

>  <reported>
3.30

$$$$
>  <smiles data>
COc1ccc2nc3cc(Cl)ccc3c(Nc3sc4c(c3C#N)CCCCC4)c2c1

>  <study target>
Leishmania amazonensis

>  <property label>
pEC50

>  <inequality symbol>
=

>  <reported>
4.49

$$$$
>  <smiles data>
COc1ccc2nc3cc(Cl)ccc3c(Nc3sc4c(c3C#N)CCCCCC4)c2c1

>  <study target>
Leishmania amazonensis

>  <property label>
pEC50

>  <inequality symbol>
=

>  <reported>
4.16

$$$$
>  <smiles data>
COc1ccc2nc3cc(Cl)ccc3c(Nc3sc4c(c3C#N)CCCC4)c2c1

>  <study target>
Leishmania amazonensis

>  <property label>
pEC50

>  <inequality symbol>
=

>  <reported>
4.96

$$$$

====

test system: Mycobacterium tuberculosis; experiment: Antimycobacterial activity against Mycobacterium tuberculosis H37Ra incubated for 8 to 12 days by XTT reduction menadione assay; format: functional; conditions: time 8-12 day
Measured MIC, listed per entry.

>  <compound>
CO[C@H]1/C=C/O[C@@]2(C)Oc3c(C)c(O)c4c(O)c(c(/C=N/N5CCN(C)CC5)c(O)c4c3C2=O)NC(=O)/C(C)=C\C=C\[C@H](C)[C@H](O)[C@@H](C)[C@@H](O)[C@@H](C)[C@H](OC(C)=O)[C@@H]1C [RIFAMPIN]

>  <inequality symbol>
=

>  <MIC, µg/mL>
0.042

$$$$
>  <compound>
COC(=O)c1c(NC(=O)N[C@@H](C(=O)N[C@@H]2C(=O)N3C(C(=O)O)=C(C)CS[C@H]23)c2ccccc2)sc2c1CCCCCC2

>  <inequality symbol>
=

>  <MIC, µg/mL>
0.782

$$$$
>  <compound>
COC(=O)c1ccsc1NC(=O)N[C@@H](C(=O)N[C@@H]1C(=O)N2[C@@H]1SC(C)(C)[C@@H]2C(=O)O)c1ccc(O)cc1

>  <inequality symbol>
>

>  <MIC, µg/mL>
50

$$$$
>  <compound>
COC(=O)c1ccsc1NC(=O)N[C@@H](C(=O)N[C@@H]1C(=O)N2C(C(=O)O)=C(C)CS[C@H]12)c1ccccc1

>  <inequality symbol>
>

>  <MIC, µg/mL>
50

$$$$

====

tested on: Leishmania amazonensis; test: Anti-promastigote activity against Leishmania amazonensis (IFLA/BR/67/PH8) assessed as promastigote growth inhibition incubated for 72 hrs by microscopic analysis; type: functional, organism-based
property label: EC50

>  <smiles data>
CCOC(=O)c1c(Nc2c3ccc(Cl)cc3nc3ccc(OC)cc23)sc2c1CCCC2

>  <reported>
26.6 µM

$$$$

====

assay: Antiproliferative activity against human U-87 MG cells assessed as cell growth inhibition by MTT assay; type: functional, cell-based, U-87MG ATCC
Measured IC50, listed per entry.
property label: IC50 (µM)

>  <smiles data>
N#Cc1c(N)sc(C(=O)Nc2ccccc2)c1-c1ccccc1

>  <display unit>
µM

>  <reported>
8.93

$$$$
>  <smiles data>
CCOC(=O)c1c(NC(=O)CC#N)sc(C(=O)Nc2ccccc2)c1-c1ccccc1

>  <display unit>
µM

>  <reported>
0.62

$$$$
>  <smiles data>
COc1cc2c(Oc3ccc(NC(=O)C4(C(=O)Nc5ccc(F)cc5)CC4)cc3F)ccnc2cc1OCCCN1CCOCC1

>  <display unit>
µM

>  <reported>
0.9

$$$$
>  <smiles data>
N#Cc1c(N)sc(C(=O)Nc2ccc(Cl)cc2)c1-c1ccccc1

>  <display unit>
µM

>  <reported>
0.59

$$$$
>  <smiles data>
N#CCC(=O)Nc1sc(C(=O)Nc2ccccc2)c(-c2ccccc2)c1C#N

>  <display unit>
µM

>  <reported>
6.28

$$$$
>  <smiles data>
N#CCC(=O)Nc1sc(C(=O)Nc2ccc(Cl)cc2)c(-c2ccccc2)c1C#N

>  <display unit>
µM

>  <reported>
0.86

$$$$
>  <smiles data>
CCOC(=O)c1c(N)sc(C(=O)Nc2ccccc2)c1-c1ccccc1

>  <display unit>
µM

>  <reported>
7.42

$$$$
>  <smiles data>
CCOC(=O)c1c(NC(=O)CC#N)sc(C(=O)Nc2ccc(Cl)cc2)c1-c1ccccc1

>  <display unit>
µM

>  <reported>
0.43

$$$$
>  <smiles data>
CCOC(=O)c1c(N)sc(C(=O)Nc2ccc(Cl)cc2)c1-c1ccccc1

>  <display unit>
µM

>  <reported>
0.39

$$$$

====

tested on: Staphylococcus aureus; assay: Antibacterial activity against Staphylococcus aureus NCIM 2010 assessed as reduction in bacterial growth incubated for 8 hrs by absorbance based assay; type: functional, organism-based; details: NCIM 2010, 8 h

>  <smiles data>
CC1(C)S[C@@H]2[C@H](NC(=O)[C@H](N)c3ccccc3)C(=O)N2[C@H]1C(=O)O

>  <display unit>
nM

>  <EC50>
150

$$$$
>  <smiles data>
COC(=O)c1c(NC(=O)N[C@@H](C(=O)N[C@@H]2C(=O)N3[C@@H]2SC(C)(C)[C@@H]3C(=O)O)c2ccc(O)cc2)sc2c1CCCCCC2

>  <display unit>
nM

>  <EC50>
160

$$$$
>  <smiles data>
COC(=O)c1ccsc1NC(=O)N[C@@H](C(=O)N[C@@H]1C(=O)N2[C@@H]1SC(C)(C)[C@@H]2C(=O)O)c1ccc(O)cc1

>  <display unit>
nM

>  <EC50>
150

$$$$
>  <smiles data>
CC1(C)S[C@@H]2[C@H](NC(=O)[C@H](N)c3ccc(O)cc3)C(=O)N2[C@H]1C(=O)O

>  <display unit>
nM

>  <EC50>
150

$$$$
